test system: PC-3 prostate; test: NCI tumour cell line growth inhibition, 48 h
GI50 overview
Endpoint label: GI50

>>> value("CCCS(=O)(=O)c1nc(NC2CC2)cc(-c2ccc3c(ccn3C3CC(C)(C)NC(C)(C)C3)c2)n1")
"1.78 µM"
>>> value("CNC(=O)c1cn(C[C@H](F)CCc2ccc(NC(=O)Cc3cc(OC4CC(F)(F)C4)cc(C)n3)nn2)nn1")
"> 100 µM"
>>> value("C[C@H]1CCC/C=C/[C@@H]2C[C@H](N)C[C@H]2[C@H](O)/C=C/C(=O)O1")
"> 100 µM"
>>> value("COc1ccc(NC2=C(Br)C(=O)C(C)=C(C)C2=O)cc1")
"2.78 µM"
>>> value("COc1ccc(C2C(C#N)=C(N)OC3=C2CCCc2ccc(F)cc23)cc1OC (stereo not given)")
"19.5 µM"

----------
tested on: MCF7 breast; experiment: NCI tumour cell line growth inhibition, 48 h; in the data active means GI50 below about 0.43 µM; inactive means the rest
Outcomes: 1 (active), -1 (inactive)

>>> classification("O=P(O)(O)C(O)(Cn1ccnc1)P(=O)(O)O")
-1
>>> classification("C=C1CC(COc2cc(Cl)nc(N)n2)C1")
-1
>>> classification("CN1CCN(Cc2ccc(NC(=O)c3ccc(C(C)(C)C)c(C#Cc4cnc5cccnn45)c3)cc2C(F)(F)F)CC1")
-1
>>> classification("COC(=O)NC/C=C\\c1nc(CC/C=C\\C(=O)OC2CC3CC(=O)O[C@@H](/C=C/CC(C)C)C[C@@H]4CCC(C)C(C[C@@H](OC)CC(C2)O3)O4)co1 (stereo partly drawn)")
1
>>> classification("Cc1ncc(NC(=O)c2ccc(CN3CCN(C)CC3)c(C(F)(F)F)c2)cc1Nc1nccc(-c2cccnc2)n1")
-1
>>> classification("FC(F)(F)c1ccc2c(Nc3cccc(C4CC(c5ccccc5)=NN4c4ccc(Cl)cc4)c3)ccnc2c1 (stereo not drawn)")
-1
>>> classification("Oc1ccc(Cc2ccccc2)c2cccnc12")
-1
>>> classification("Cc1c(C(=O)NN)nnn1-c1ccnc2c(C(F)(F)F)cccc12")
-1

----------
system: SK-MEL-5 melanoma; experiment: NCI tumour cell line growth inhibition, 48 h
# TGI listing for each entry below
Endpoint label: TGI (µM)

>>> value("CC(C)(C)OC(=O)c1ccc(NCc2cc(O)ccc2O)cc1")
13.1
>>> value("c1cc[c]([Sn]([S]c2cccc3cccnc23)([c]2ccccc2)[c]2ccccc2)cc1")
0.277

----------
This listing pairs compounds with measured TGI.
test system: DU-145 prostate; assay: NCI tumour cell line growth inhibition, 48 h
Endpoint label: TGI

>>> value("CCn1c(-c2nonc2N)nc2ccc(F)cc21")
"> 25 µM"
>>> value("COc1ccc(CCCCl)c(C2=NCCc3ccccc32)c1")
"> 100 µM"
>>> value("C=CC(=O)Nc1cccc(Nc2nc(Nc3ccc(OCCOC)cc3)ncc2F)c1")
"13.7 µM"
>>> value("CCOC(=O)c1c(NC(=S)Nc2ccc(C)cc2)sc2c1CCN(C)C2")
"> 100 µM"
>>> value("CNC(=O)c1cc(Oc2ccc(NC(=O)Nc3ccc(Cl)c(OC(F)(F)F)c3)c(F)c2)ccn1")
"> 33.2 µM"
>>> value("NC(N)=N/N=C/c1c(-c2ccccn2)nc2sc(Cl)cn12")
"14.4 µM"

----------
tested on: SN12C renal; assay: NCI tumour cell line growth inhibition, 48 h
Endpoint label: GI50

>>> value("CCCCCCNc1nc(NCCCCCC)c2[nH]c(NCCCCCC)nc2n1")
"3.75 µM"
>>> value("CCCSc1cc(Cl)nc(N)n1")
"> 100 µM"
>>> value("COCC(=O)OC1CCn2c1nc1c2C(=O)C(C)=C(NC(C)=O)C1=O (stereo not drawn)")
"4.62 µM"
>>> value("CC1=C(C)C(=O)O[C@@H]([C@](C)(O)[C@]2(O)CC[C@@]3(O)[C@@H]4C[C@H]5O[C@]56CC=CC(=O)[C@]6(C)[C@H]4CC[C@]23C)C1")
"0.411 µM"
>>> value("CCn1c(-c2nonc2N)nc2ccc(F)cc21")
"> 25 µM"
>>> value("O=C1c2ccccc2-c2c1c1ccccc1c(=O)n2CCNCCCNCCn1c2c(c3ccccc3c1=O)C(=O)c1ccccc1-2")
"0.011 µM"
>>> value("CN(C)c1nc(-c2cccs2)n2nc(-c3ccc(Cl)cc3)cc2n1")
"> 100 µM"
>>> value("NCCN1CCN(c2nccc(-c3ccc4ccccc4c3)n2)CC1")
"1.71 µM"
>>> value("COc1ccc(C2C(C#N)=C(N)OC3=C2CCCc2ccc(F)cc23)cc1OC (stereo not drawn)")
"19.7 µM"
>>> value("Oc1ccc(Cc2ccccc2)c2cccnc12")
"2.61 µM"
>>> value("COc1cc2c3c(n(C)c(=O)c2cc1OC)-c1cc2c(cc1/C3=C/CCCCBr)OCO2")
"> 100 µM"
>>> value("COC(=O)C(Cc1ccccc1)N/C=C\\C(=O)c1ccc(Cl)cc1 (stereo not drawn)")
"16.7 µM"
>>> value("C=C1CC(COc2cc(Cl)nc(N)n2)C1")
"44.1 µM"
>>> value("Cc1c(C(=O)NN)nnn1-c1ccnc2c(C(F)(F)F)cccc12")
"76.5 µM"
>>> value("CCCNCc1cc(C)cc2c1nc(N1CCNCC1)n2Cc1cc(C)c(F)c(C)c1")
"7.57 µM"
>>> value("Cc1ncc(NC(=O)c2ccc(CN3CCN(C)CC3)c(C(F)(F)F)c2)cc1Nc1nccc(-c2cccnc2)n1")
"14.4 µM"
>>> value("CNC(=O)c1cc(Oc2ccc(NC(=O)Nc3ccc(Cl)c(OC(F)(F)F)c3)c(F)c2)ccn1")
"2.05 µM"
>>> value("CS(=O)(=O)Nc1ccc(-c2ccc3c(NC(=O)C4CC4)n[nH]c3c2)cc1")
"> 25 µM"
>>> value("COc1ccc2c(c1)C=CC(C#N)N2C(=O)c1ccccc1 (stereo not drawn)")
"< 0.0119 µM"
>>> value("C=CC(=O)Nc1cccc(Nc2nc(Nc3ccc(OCCOC)cc3)ncc2F)c1")
"1.77 µM"
>>> value("COc1ccc(NC2=C(Br)C(=O)C(C)=C(C)C2=O)cc1")
"11 µM"
>>> value("O=C(Nc1cc(-c2ccccc2)[nH]n1)c1ccc(Cl)cc1")
"> 100 µM"
>>> value("O=P(O)(O)C(O)(Cn1ccnc1)P(=O)(O)O")
"> 57.7 µM"
